Target: Tat-TAR interaction
Procedure summary: Gel-shift inhibition of Tat R52 peptide binding to TAR RNA
Test conditions: CI50 normalized to the conditions of Tao and Frankel, 1992; read-out: apparent Ki
pKi: −log10 of the molar value.
Quantity: pKi

{"columns": ["Compound", "pKi"],
 "data": [
  ["CO[C@H]1O[C@H](CNC(=N)N)[C@@H](O)[C@H](O)[C@@H]1O", "~3.00"]
]}

Recorded pKi (compound CO[C@@H]1O[C@H](CNC(C)=N)C(O)[C@H](O)[C@@H]1O (stereo partly drawn) ): ~3.00

Recorded pKi (compound COC1OC(CNC(=O)C(N)CCCNC(=N)N)C(O)C(O)C1O (stereo not drawn) ): ~3.80

The measured values listed here are drawn from patent US6642365B1.
